Tested on: MOLT-4 cancer cell line
Assay: Cell proliferation assay, MOLT-4 cancer cell line (ATPlite)
Type: cell-based
Settings: Homo sapiens, MOLT-4, read-out: IC50 in the TTK cellular assay
pIC50: −log10 of the molar value.
Let's look at some molecules and their measured pIC50.

COCCOCCOCCn1nc(C)c(NC(=O)c2ccn3c2CCc2cnc(Nc4ccc(-c5c(C)nn(C)c5C)cc4OC)nc2-3)c1C
> 7.30

API: the following record is the query input.
*Q* Recorded pIC50 for "CCOCCOCCn1nc(C)c(NC(=O)c2ccn3c2CCc2cnc(Nc4ccc(N5CCN(C)CC5)cc4OC)nc2-3)c1C" , please?
*A* > 7.30

====

Test system: MOLT-4 cancer cell line
Assay: Cell proliferation assay, MOLT-4 cancer cell line (ATPlite)
Type: cell-based
Settings: Homo sapiens, MOLT-4; 72 hours incubation, ATPlite 1Step; read-out: IC50 MOLT-4 cell proliferation
pIC50: −log10 of the molar value.
Let's look at some molecules and their measured pIC50.

*Q* Recorded pIC50 for "CCc1cccc(CC)c1NC(=O)c1ccn2c1CCc1cnc(Nc3cnc(N4CCN(C)CC4)nc3OC)nc1-2" , please?
*A* > 7.30

*Q* And "CCc1n[nH]c(CC)c1NC(=O)c1ccn2c1CCc1cnc(Nc3ccc(N4CCN(C)CC4)cc3C)nc1-2" ?
*A* > 7.30

*Q* And "COc1cc(N2CCNCC2)ccc1Nc1ncc2c(n1)-n1ccc(C(=O)Nc3c(C)cccc3C)c1CC2" ?
*A* > 7.30

*Q* And "COc1cc(N2CCN(C)CC2)ccc1Nc1ncc2c(n1)-n1ccc(C(=O)Nc3c(C)cccc3F)c1CC2" ?
*A* 6.82 to 7.30

====

Biological target: Aurora A (Homo sapiens, UniProt O14965)
Construct: full-length Aurora A enzyme (Carna Biosciences, cat. no. 05-101); purchased Carna Biosciences 05-101
Assay: Biochemical Aurora A kinase assay (LANCE Ultra TR-FRET)
Conditions: IC50 AurA/IC50 TTK (biochemical assays)
measured_attribute: AurA Selectivity

*Q* Recorded AurA Selectivity for CCc1nn(CCOCCOC)c(CC)c1NC(=O)c1ccn2c1CCc1cnc(Nc3ccc(N4CCN(C(=O)COC)CC4)cc3OC)nc1-2 [Example 159] , please?
*A* >200

*Q* And COCCOCCOCCn1nc(C)c(NC(=O)c2ccn3c2CCc2cnc(Nc4ccc(N5CCN(C)CC5)cc4OC)nc2-3)c1C [Example 138] ?
*A* >500

*Q* And COCCOCCOCCn1nc(C)c(NC(=O)c2ccn3c2CCc2cnc(Nc4ccc(N5CCNCC5)cc4OC)nc2-3)c1C [Example 156] ?
*A* >200

*Q* And CCc1nn(CCOCCOC)c(CC)c1NC(=O)c1ccn2c1CCc1cnc(Nc3ccc(N4CCN(C)CC4)cc3OC)nc1-2 [Example 141] ?
*A* >200

*Q* And CCOCCOCCn1nc(CC)c(NC(=O)c2ccn3c2CCc2cnc(Nc4ccc(N5CCNCC5)cc4OC)nc2-3)c1CC [Example 151] ?
*A* >100

====

Let's look at some compounds and their measured pIC50.
Tested on: MOLT-4 cancer cell line
Assay: Cell proliferation assay, MOLT-4 cancer cell line (ATPlite)
Format: cell-based
Details: Homo sapiens, MOLT-4; 72 hours incubation, ATPlite 1Step; read-out: IC50 MOLT-4 cell proliferation
pIC50: −log10 of the molar value.

As a guide, the following entries are already answered.
CCc1n[nH]c(CC)c1NC(=O)c1ccn2c1CCc1cnc(Nc3ccc(N4CCN(C)CC4)cc3OC(F)F)nc1-2 [Example 33]
> 7.30
CCN1CCCN(C(=O)c2ccc(Nc3ncc4c(n3)-n3ccc(C(=O)Nc5c(C)cccc5C)c3CC4)c(OC)c2)CC1 [Example 124]
> 7.30
COc1cc(OC2CCN(C)C2)ccc1Nc1ncc2c(n1)-n1ccc(C(=O)Nc3c(C)cccc3C)c1CC2 (centres unmarked) [Example 84]
> 7.30

*Q* Recorded pIC50 for COc1cc(N2CCN(C)CC2)ccc1Nc1ncc2c(n1)-n1ccc(C(=O)Nc3c(C)nn(CC4CCO4)c3C)c1CC2 (centres unmarked) [Example 140] , please?
*A* 6.82 to 7.30

====

Tested on: MOLT-4 cancer cell line
Test: Cell proliferation assay, MOLT-4 cancer cell line (ATPlite)
Format: cell-based
Settings: Homo sapiens, MOLT-4; 72 hours incubation, ATPlite 1Step; read-out: IC50 MOLT-4 cell proliferation
measured_attribute: IC50

As a guide, the following entries are already answered.
COc1cc(OC2CCN(C)CC2)ccc1Nc1ncc2c(n1)-n1ccc(C(=O)Nc3c(C)n[nH]c3C)c1CC2
0.05 to 0.15 µM
Cc1cc(N2CCNCC2)ccc1Nc1ncc2c(n1)-n1ccc(C(=O)Nc3c(C)cccc3C)c1CC2
< 0.05 µM
COCCn1nc(C)c(NC(=O)c2ccn3c2CCc2cnc(Nc4ccc(N5CCN(C(=O)C6CC(F)C6)CC5)cc4OC)nc2-3)c1C (stereo not shown)
0.05 to 0.15 µM

*Q* Recorded IC50 for "COc1cc(C(=O)NC2CC2)ccc1Nc1ncc2c(n1)-n1ccc(C(=O)Nc3c(C)cccc3C)c1CC2" , please?
*A* < 0.05 µM

====

Let's look at some molecules and their measured pIC50.
System: MOLT-4 cancer cell line
Assay: Cell proliferation assay, MOLT-4 cancer cell line (ATPlite)
Format: cell-based
Details: Homo sapiens, MOLT-4; 72 hours incubation, ATPlite 1Step; read-out: IC50 MOLT-4 cell proliferation
pIC50: −log10 of the molar value.

COc1cc(N2CCNCC2)ccc1Nc1ncc2c(n1)-n1ccc(C(=O)Nc3c(C)cccc3Cl)c1CC2
> 7.30
CCOc1cc(C(=O)NC2CCN(C)CC2)ccc1Nc1ncc2c(n1)-n1ccc(C(=O)Nc3c(C)cccc3CC)c1CC2
6.82 to 7.30
COc1cc(N2CCN(C)CC2)ccc1Nc1ncc2c(n1)-n1ccc(C(=O)Nc3c(C)n[nH]c3C)c1CC2
6.82 to 7.30
CCc1cccc(C)c1NC(=O)c1ccn2c1CCc1cnc(Nc3ccc(N4CCN(C)CC4)cc3OC)nc1-2
> 7.30
CCc1nn(CCOCCOC)c(CC)c1NC(=O)c1ccn2c1CCc1cnc(Nc3ccc(N4CCN(C)CC4)cc3OC)nc1-2
> 7.30
CCc1n[nH]c(CC)c1NC(=O)c1ccn2c1CCc1cnc(Nc3ccc(OCCN(C)C)cc3OC)nc1-2
6.82 to 7.30

API: the following record is the query input.
*Q* Recorded pIC50 for "Cc1cc(N2CCN(C)CC2)ccc1Nc1ncc2c(n1)-n1ccc(C(=O)Nc3c(Cl)cccc3Cl)c1CC2" , please?
*A* > 7.30

====

Let's look at some compounds and their measured IC50.
Test system: MOLT-4 cancer cell line
Experiment: Cell proliferation assay, MOLT-4 cancer cell line (ATPlite);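 further: luminescence read-out, percent growth versus compound-free DMSO wells as maximum growth, start-of-incubation signal separating growth from cell death, IC50 from logistic curve fit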
Format: cell-based
Settings: Homo sapiens, MOLT-4; 72 hours incubation, ATPlite 1Step; read-out: IC50 MOLT-4 cell proliferation

COCCOCCOCCn1nc(C)c(NC(=O)c2ccn3c2CCc2cnc(Nc4ccc(N5CCN(C)CC5)cc4OC)nc2-3)c1C
< 50 nM

*Q* Recorded IC50 for "COc1cc(C(=O)NCCN2CCCCC2)ccc1Nc1ncc2c(n1)-n1ccc(C(=O)Nc3c(C)cccc3C)c1CC2" , please?
*A* 50 to 150 nM

*Q* And "Cc1cc(N2CCN(C)CC2)ccc1Nc1ncc2c(n1)-n1ccc(C(=O)Nc3c(C)cccc3Br)c1CC2" ?
*A* < 50 nM

*Q* And "CCc1cccc(C)c1NC(=O)c1ccn2c1CCc1cnc(Nc3ccc(N4CCN(C)CC4)cc3)nc1-2" ?
*A* < 50 nM

====

Target: Aurora A (Homo sapiens)
Construct: full-length Aurora A enzyme (Carna Biosciences, cat. no. 05-101); purchased Carna Biosciences 05-101
Sequence (O14965 1-403): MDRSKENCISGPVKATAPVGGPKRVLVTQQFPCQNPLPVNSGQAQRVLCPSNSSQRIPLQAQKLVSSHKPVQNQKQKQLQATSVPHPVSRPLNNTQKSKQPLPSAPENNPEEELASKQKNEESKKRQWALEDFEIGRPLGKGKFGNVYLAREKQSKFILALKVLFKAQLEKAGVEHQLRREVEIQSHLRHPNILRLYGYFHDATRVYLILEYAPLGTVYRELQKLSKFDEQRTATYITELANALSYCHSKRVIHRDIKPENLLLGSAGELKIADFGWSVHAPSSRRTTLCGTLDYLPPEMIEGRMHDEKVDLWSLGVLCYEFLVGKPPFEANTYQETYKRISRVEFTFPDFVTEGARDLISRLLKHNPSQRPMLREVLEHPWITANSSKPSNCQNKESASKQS
Assay: Biochemical Aurora A kinase assay (LANCE Ultra TR-FRET)
Conditions: IC50 AurA/IC50 TTK (biochemical assays)
measured_attribute: AurA Selectivity

As a guide, the following entries are already answered.
COCCOCCn1nc(C)c(NC(=O)c2ccn3c2CCc2cnc(Nc4ccc(N5CCN(C)CC5)cc4OC)nc2-3)c1C
>200
CCNCC(=O)N1CCN(c2ccc(Nc3ncc4c(n3)-n3ccc(C(=O)Nc5c(CC)nn(CCOCCOC)c5CC)c3CC4)c(OC)c2)CC1
>200
COCCn1nc(C)c(NC(=O)c2ccn3c2CCc2cnc(Nc4ccc(N5CCN(C(=O)C6CN(C)C6)CC5)cc4OC)nc2-3)c1C
>200
CCNCC(=O)N1CCN(c2ccc(Nc3ncc4c(n3)-n3ccc(C(=O)Nc5c(C)nn(CCOCCOCCOC)c5C)c3CC4)c(OC)c2)CC1
>200
CCc1n[nH]c(CC)c1NC(=O)c1ccn2c1CCc1cnc(Nc3ccc(N4CCN(C)CC4)cc3OC(F)F)nc1-2
>500

API: the following record is the query input.
*Q* Recorded AurA Selectivity for "CCOCCOCCn1nc(CC)c(NC(=O)c2ccn3c2CCc2cnc(Nc4ccc(N5CCN(C)CC5)cc4OC)nc2-3)c1CC" , please?
*A* >200
